Origin of the recorded values: paper PMC11044151

- System: A549
- Assay notes: Neutral red uptake antiproliferative assay, A549
- Applied conditions: Homo sapiens, A549, 72 h, read-out: IC50 A549
Measured endpoint: IC50 (µM)

P = CC(C)[C@H](N)c1nc2cc(Cl)ccc2c(=O)n1Cc1ccccc1 [(S)-1, reference compound]
Q = CC(C)[C@@H](N)c1nc2cc(Cl)ccc2c(=O)n1Cc1ccccc1 [(R)-1, reference compound]
[ask] Which of the two gives a bigger number for IC50: P or Q ? Provide the label of your selected option as the answer.
[reply] P
(P: 7.05 µM, Q: 2.21 µM)

###

Overview of reported Cell cycle fraction G2/M, 48 h across a group of compounds:
- Tested on: SW620 cells
- Assay notes: Cell cycle distribution by flow cytometry, SW620
- Type: cell-based, human
- Applied conditions: SW620, 48 h, concentration equal to IC75 of (S)-1 / (R)-1; mean ± SEM, n = 3
Express it in %; write the number only.

Before answering, review these 2 worked examples.
INSERT INTO measurements (compound, output_unit, endpoint_value) VALUES
  ('CC(C)[C@H](N)c1nc2cc(Cl)ccc2c(=O)n1Cc1ccccc1 [(S)-1, reference compound]', '%', 42.5),
  ('CC(C)[C@H](N=Cc1ccccn1)c1nc2cc(Cl)ccc2c(=O)n1Cc1ccccc1.Cc1ccc(C(C)C)cc1.F[P-](F)(F)(F)(F)F.[Cl-].[Os+2] [Compound 4b, [(cym)Os((S)-2)Cl]PF6]', '%', 42.7);

Record CC(C)[C@@H](N=Cc1ccccn1)c1nc2cc(Cl)ccc2c(=O)n1Cc1ccccc1.Cc1ccc(C(C)C)cc1.F[P-](F)(F)(F)(F)F.[Cl-].[Ru+2] [Compound 3a, [(cym)Ru((R)-2)Cl]PF6] has SW620 cells Cell cycle fraction G2/M, 48 h equal to 40.2

###

- Test system: KSP (Homo sapiens, UniProt P52732)
- Construct: purchased Cytoskeleton, Inc
- Sequence (P52732 1-368 limits assumed): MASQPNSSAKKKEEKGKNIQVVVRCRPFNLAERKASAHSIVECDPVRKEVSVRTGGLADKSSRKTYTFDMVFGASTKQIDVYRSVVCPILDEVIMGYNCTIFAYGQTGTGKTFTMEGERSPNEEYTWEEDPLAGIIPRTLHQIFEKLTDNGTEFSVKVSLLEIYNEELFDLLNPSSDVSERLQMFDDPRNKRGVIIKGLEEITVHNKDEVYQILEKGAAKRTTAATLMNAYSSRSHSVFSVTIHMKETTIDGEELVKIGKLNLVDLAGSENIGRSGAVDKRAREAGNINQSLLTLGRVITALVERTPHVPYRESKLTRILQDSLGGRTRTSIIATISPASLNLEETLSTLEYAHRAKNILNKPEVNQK
- Assay notes: Kinesin ATPase inhibition (ATP hydrolysis) end-point assay
- Assay type: biochemical
- Applied conditions: 100 nM stated for ispinesib and (R)-1; concentration not restated for the complexes
- Protocol: The mechanism of the anticancer activity of ispinesib is related to the inhibition of the activity of the KSP. Thus, we studied the synthesized compounds’ ability to inhibit KSP activity using the adenosine 5′-triphosphate (ATP) hydrolysis assay. The potential kinesin modulatory activity of tested compounds was performed using a Kinesin ATPase end-point biochem kit (Cytoskeleton, Inc.). […] Phosphate release was measured at the absorbance 650 nm using an EnVision multilabel plate reader (PerkinElmer).
Measured endpoint: KSP residual activity (%)

INSERT INTO results (compound, measured_endpoint, output_unit, endpoint_value) VALUES
  ('Cc1ccc(C(=O)N(CCCN)[C@@H](c2nc3cc(Cl)ccc3c(=O)n2Cc2ccccc2)C(C)C)cc1 [ispinesib, reference compound]', 'KSP residual activity', '%', 2.2),
  ('CC(C)[C@@H](N=Cc1ccccn1)c1nc2cc(Cl)ccc2c(=O)n1Cc1ccccc1.Cc1ccc(C(C)C)cc1.F[P-](F)(F)(F)(F)F.[Cl-].[Os+2] [Compound 3b, [(cym)Os((R)-2)Cl]PF6]', 'KSP residual activity', '%', 71.8),
  ('CC(C)[C@@H](N=Cc1ccccn1)c1nc2cc(Cl)ccc2c(=O)n1Cc1ccccc1.Cc1c(C)c(C)[c-](C)c1C.F[P-](F)(F)(F)(F)F.[Cl-].[Rh+3] [Compound 3c, [(Cp*)Rh((R)-2)Cl]PF6]', 'KSP residual activity', '%', 47.5),
  ('CC(C)[C@@H](N=Cc1ccccn1)c1nc2cc(Cl)ccc2c(=O)n1Cc1ccccc1.Cc1c(C)c(C)[c-](C)c1C.F[P-](F)(F)(F)(F)F.[Cl-].[Ir+3] [Compound 3d, [(Cp*)Ir((R)-2)Cl]PF6]', 'KSP residual activity', '%', 64.0);
